meta.source: paper PMC10030462

- Tested on: HeLa human cervical cancer cells
- Assay notes: cells
- Parameters: cellular lipid droplet reduction, fluorescence imaging high-content phenotypic screen
- Experimental setup: 24 h, lipid droplet reduction in HeLa
Property name: inhibition at 10 µM (%)
Numbers only, in %.

{"columns": ["Smiles data", "inhibition at 10 µM, %"],
 "data": [
  ["Oc1cccc(-c2ccc3nc(-c4cn(-c5ccccc5Cl)nn4)ccc3c2)c1", 2.7],
  ["Oc1cccc(-c2ccc3nc(-c4cn(-c5ccc(C(F)(F)F)cc5)nn4)ccc3c2)c1", 35.9],
  ["Oc1cccc(-c2ccc3nc(-c4cn(-c5ccc(Br)cc5)nn4)ccc3c2)c1", 36.8]
]}

Here is the next item to consider.
query: Look up inhibition at 10 µM for this compound: O=[N+]([O-])c1ccccc1-n1cc(-c2ccc3cc(-c4cccc(O)c4)ccc3n2)nn1
result: 48.5
